- MEASURED TARGET: pre-existing anti-drug antibodies (ADA) present in human sera
- ASSAY METHOD TEXT: pre-existing ADA ELISA, scFv coated, human sera unspiked vs spiked
MEASURED PARAMETER: No of serum samples >30% inhibition (30% CCP) without SCP (serum samples)

Give me measured No of serum samples >30% inhibition (30% CCP) without SCP (serum samples), please, for this binder: PRO3343 (scFv 37-20-B03-sc09.1_(T101R, T146E)) (scFv, PRO2230 variant; VH substitutions, AHo numbering; also called PRO2230 T101R-T146E) scFv: DIQMTQSPASLSASVGDRVTITCQASQSIGTYLAWYQQKPGKPPKLLIYRAFILASGVPSRFSGSGSGTDFTLTISSLQPEDFATYYCQSNFYSDSTTIGPNAFGTGTKVTVLGGGGGSGGGGSGGGGSGGGGSEVQLVESGGGLVQPGGSLRLSCAASGFSFNSDYWIYWVRQAPGKGLEWIASIYGGSSGNTQYASWAQGRFTISRDNSKNTVYLQMNSLRAEDRAVYFCARGYVDYGGATDLWGQGTLVEVSS 0

Give me measured No of serum samples >30% inhibition (30% CCP) without SCP (serum samples), please, for this binder: PRO2987 (scFv 37-20-B03-sc09.1_(P15A)) (scFv, PRO2230 variant; VH substitution, AHo numbering; also called PRO2230 P15A) scFv: DIQMTQSPASLSASVGDRVTITCQASQSIGTYLAWYQQKPGKPPKLLIYRAFILASGVPSRFSGSGSGTDFTLTISSLQPEDFATYYCQSNFYSDSTTIGPNAFGTGTKVTVLGGGGGSGGGGSGGGGSGGGGSEVQLVESGGGLVQAGGSLRLSCAASGFSFNSDYWIYWVRQAPGKGLEWIASIYGGSSGNTQYASWAQGRFTISRDNSKNTVYLQMNSLRAEDTAVYFCARGYVDYGGATDLWGQGTLVTVSS 7

Give me measured No of serum samples >30% inhibition (30% CCP) without SCP (serum samples), please, for this binder: PRO2986 (scFv 37-20-B03-sc09.1_(T146A)) (scFv, PRO2230 variant; VH substitution, AHo numbering; also called PRO2230 T146A) scFv: DIQMTQSPASLSASVGDRVTITCQASQSIGTYLAWYQQKPGKPPKLLIYRAFILASGVPSRFSGSGSGTDFTLTISSLQPEDFATYYCQSNFYSDSTTIGPNAFGTGTKVTVLGGGGGSGGGGSGGGGSGGGGSEVQLVESGGGLVQPGGSLRLSCAASGFSFNSDYWIYWVRQAPGKGLEWIASIYGGSSGNTQYASWAQGRFTISRDNSKNTVYLQMNSLRAEDTAVYFCARGYVDYGGATDLWGQGTLVAVSS 2
